# System: clinical strains of Streptococcus pneumoniae
# Assay method text: MIC, clinical strains of Streptococcus pneumoniae
# Assay type: cell-based
# Parameters: unit: µg/mL
# Run conditions: Streptococcus pneumoniae clinical strain 2; microdilution, Muller Hinton broth-cation adjusted, 0.02% BSA, 0.2% acetic acid
Where a SMILES comes first, the peptide text is derived from it. [ ]: non-standard residue; d: D form.
# reported Minimum inhibitory concentration; entries follow
Test readout: Minimum inhibitory concentration

[
  {
    "Compound": "CC[C@@H](C)[C@@H](NC(=O)[C@@H](CC(C)C)NC(=O)[C@@H](CCCNC(=N)N)NC(=O)[C@H](N)CCCNC(=N)N)C(=O)N[C@H](Cc1c[nH]c2ccccc12)C(=O)N[C@H](CCCNC(=N)N)C(=O)N[C@H](CCCNC(=N)N)C(=O)N[C@H](Cc1ccccc1)C(=O)N[C@H](CCCCN)C(=O)N[C@H](Cc1c[nH]c2ccccc12)C(=O)N[C@H](CC(C)C)C(=O)N[C@H](CCCNC(=N)N)C(=O)O [Chain204D] (H-[dR][dR][dL][dI][dW][dR][dR][dF][dK][dW][dL][dR]-OH)",
    "Result": 4
  },
  {
    "Compound": "CC(C)C[C@@H](NC(=O)[C@@H](CCCCN)NC(=O)[C@@H](CCCCN)NC(=O)[C@@H](Cc1ccccc1)NC(=O)[C@@H](CC(C)C)NC(=O)[C@@H](Cc1c[nH]c2ccccc12)NC(=O)[C@@H](CCCNC(=N)N)NC(=O)[C@@H](Cc1c[nH]c2ccccc12)NC(=O)[C@@H](CCCCN)NC(=O)[C@@H](CCCNC(=N)N)NC(=O)[C@H](N)CCCCN)C(=O)O [Chain310D] (H-[dK][dR][dK][dW][dR][dW][dL][dF][dK][dK][dL]-OH)",
    "Result": 128
  },
  {
    "Compound": "CC[C@@H](C)[C@@H](N)C(=O)N[C@H](Cc1c[nH]c2ccccc12)C(=O)N[C@H](CCCCN)C(=O)N[C@H](CCCNC(=N)N)C(=O)N[C@H](Cc1ccccc1)C(=O)N[C@H](CCCNC(=N)N)C(=O)N[C@H](CC(C)C)C(=O)N[C@H](Cc1ccccc1)C(=O)N[C@H](CCCCN)C(=O)N[C@H](CCCCN)C(=O)N[C@H](Cc1c[nH]c2ccccc12)C(=O)O [Chain304D] (H-[dI][dW][dK][dR][dF][dR][dL][dF][dK][dK][dW]-OH)",
    "Result": 128
  },
  {
    "Compound": "CC(C)C[C@@H](NC(=O)[C@H](N)CCCNC(=N)N)C(=O)N[C@H](CCCCN)C(=O)N[C@H](CCCNC(=N)N)C(=O)N[C@H](Cc1c[nH]c2ccccc12)C(=O)N[C@H](CCCNC(=N)N)C(=O)N[C@H](CC(C)C)C(=O)N[C@H](Cc1ccccc1)C(=O)N[C@H](CCCNC(=N)N)C(=O)N[C@H](CCCCN)C(=O)N[C@H](CCCNC(=N)N)C(=O)O [Chain306D] (H-[dR][dL][dK][dR][dW][dR][dL][dF][dR][dK][dR]-OH)",
    "Result": 64
  },
  {
    "Compound": "CC(C)C[C@@H](NC(=O)[C@H](N)CCCNC(=N)N)C(=O)N[C@H](CCCCN)C(=O)N[C@H](Cc1c[nH]c2ccccc12)C(=O)N[C@H](Cc1ccccc1)C(=O)N[C@H](CC(C)C)C(=O)N[C@H](CC(C)C)C(=O)N[C@H](Cc1ccccc1)C(=O)N[C@H](CCCNC(=N)N)C(=O)N[C@H](CCCCN)C(=O)N[C@H](CCCNC(=N)N)C(=O)O [Chain308D] (H-[dR][dL][dK][dW][dF][dL][dL][dF][dR][dK][dR]-OH)",
    "Result": 4
  },
  {
    "Compound": "CC(C)C[C@@H](NC(=O)[C@@H](Cc1c[nH]c2ccccc12)NC(=O)[C@@H](Cc1ccccc1)NC(=O)[C@@H](Cc1c[nH]c2ccccc12)NC(=O)[C@@H](CCCCN)NC(=O)[C@@H](CCCNC(=N)N)NC(=O)[C@H](N)Cc1c[nH]c2ccccc12)C(=O)N[C@H](Cc1ccccc1)C(=O)N[C@H](CCCCN)C(=O)N[C@H](CCCCN)C(=O)N[C@H](CCCNC(=N)N)C(=O)O [Chain309D] (H-[dW][dR][dK][dW][dF][dW][dL][dF][dK][dK][dR]-OH)",
    "Result": 64
  }
]
